experimental_protocol: Pharmacokinetic study of JTV519 in CD1 mice (UPLC-MS/MS)
Assay type: in vivo
experimental_conditions: plasma; ip 30 mg/kg; CD-1 mouse
Text: To study the pharmacokinetics of JTV519, the compound was synthesized as the HCl salt and formulated as a clear solution in 20% HP-β-CD in saline and intraperitoneally injected into CD1 mice. Samples of blood and pancreas tissue and whole brain and heart organs were collected from the mice and analyzed. An ultra-performance liquid chromatography-tandem mass spectrometry (UPLC-MS/MS) method was developed to determine sample concentrations in the samples. […]
measured_attribute: AUC(0-inf) (ng·h/mL)

COc1ccc2c(c1)CN(C(=O)CCN1CCC(Cc3ccccc3)CC1)CCS2 [JTV519] ... 3460

###

experimental_protocol: Pharmacokinetic study of JTV519 in CD1 mice (UPLC-MS/MS)
Assay type: in vivo
experimental_conditions: heart; ip 30 mg/kg; CD-1 mouse, n = 3
measured_attribute: AUC(0-inf) (ng·h/mL)

COc1ccc2c(c1)CN(C(=O)CCN1CCC(Cc3ccccc3)CC1)CCS2 [JTV519] ... 29200

###

experimental_protocol: Pharmacokinetic study of JTV519 in CD1 mice (UPLC-MS/MS)
Format: in vivo
experimental_conditions: heart; ip 30 mg/kg; CD-1 mouse, n = 3
measured_attribute: Cmax (ng/mL)

COc1ccc2c(c1)CN(C(=O)CCN1CCC(Cc3ccccc3)CC1)CCS2 ... 14300

###

experimental_protocol: Pharmacokinetic study of JTV519 in CD1 mice (UPLC-MS/MS)
Type: in vivo
experimental_conditions: brain; ip 30 mg/kg; CD-1 mouse, n = 3
measured_attribute: AUC(0-inf) (ng·h/mL)

COc1ccc2c(c1)CN(C(=O)CCN1CCC(Cc3ccccc3)CC1)CCS2 ... 10100

###

experimental_protocol: Pharmacokinetic study of JTV519 in CD1 mice (UPLC-MS/MS)
Assay type: in vivo
experimental_conditions: plasma; ip 30 mg/kg; CD-1 mouse
measured_attribute: half-life (h)

COc1ccc2c(c1)CN(C(=O)CCN1CCC(Cc3ccccc3)CC1)CCS2 ... 7.1

###

experimental_protocol: Pharmacokinetic study of JTV519 in CD1 mice (UPLC-MS/MS)
Type: in vivo
experimental_conditions: heart; ip 30 mg/kg; CD-1 mouse, n = 3
measured_attribute: half-life (h)

COc1ccc2c(c1)CN(C(=O)CCN1CCC(Cc3ccccc3)CC1)CCS2 ... 4

###

experimental_protocol: Pharmacokinetic study of JTV519 in CD1 mice (UPLC-MS/MS)
Type: in vivo
experimental_conditions: pancreas; ip 30 mg/kg; CD-1 mouse, n = 3
measured_attribute: AUC(0-inf) (µg·h/mL)

COc1ccc2c(c1)CN(C(=O)CCN1CCC(Cc3ccccc3)CC1)CCS2 ... 146

###

experimental_protocol: Pharmacokinetic study of JTV519 in CD1 mice (UPLC-MS/MS)
Type: in vivo
experimental_conditions: brain; ip 30 mg/kg; CD-1 mouse, n = 3
measured_attribute: half-life

COc1ccc2c(c1)CN(C(=O)CCN1CCC(Cc3ccccc3)CC1)CCS2 ... 5.1 h

###

experimental_protocol: Pharmacokinetic study of JTV519 in CD1 mice (UPLC-MS/MS)
Assay type: in vivo
experimental_conditions: pancreas; ip 30 mg/kg; CD-1 mouse, n = 3
Text: To study the pharmacokinetics of JTV519, the compound was synthesized as the HCl salt and formulated as a clear solution in 20% HP-β-CD in saline and intraperitoneally injected into CD1 mice. Samples of blood and pancreas tissue and whole brain and heart organs were collected from the mice and analyzed. An ultra-performance liquid chromatography-tandem mass spectrometry (UPLC-MS/MS) method was developed to determine sample concentrations in the samples. […]
measured_attribute: half-life (min)

COc1ccc2c(c1)CN(C(=O)CCN1CCC(Cc3ccccc3)CC1)CCS2 [JTV519] ... 270

###

experimental_protocol: Pharmacokinetic study of JTV519 in CD1 mice (UPLC-MS/MS)
Format: in vivo
experimental_conditions: brain; ip 30 mg/kg; CD-1 mouse, n = 3
Text: To study the pharmacokinetics of JTV519, the compound was synthesized as the HCl salt and formulated as a clear solution in 20% HP-β-CD in saline and intraperitoneally injected into CD1 mice. Samples of blood and pancreas tissue and whole brain and heart organs were collected from the mice and analyzed. An ultra-performance liquid chromatography-tandem mass spectrometry (UPLC-MS/MS) method was developed to determine sample concentrations in the samples. […]
measured_attribute: Cmax (ng/mL)

COc1ccc2c(c1)CN(C(=O)CCN1CCC(Cc3ccccc3)CC1)CCS2 ... 5130
